tested.target: codon-optimized nanoKAZ domain protein (Oplophorus gracilirostris, UniProt Q9GV45, A31E/A60N/A81I/F95D/I117V/K70R/L54V/L99Q/M102K/N193R/P142E/Q151K/Q38R/Q45L/V71I/Y165I)
Construct: expressed in transfected cells; host or cells: CHO-K1, HeLa or COS-1 cells transfected with pcDNA3-nanoKAZ or pcDNA3-GLsp-nanoKAZ
Sequence (Q9GV45 28-196 with tags or gaps with the stated changes limits assumed): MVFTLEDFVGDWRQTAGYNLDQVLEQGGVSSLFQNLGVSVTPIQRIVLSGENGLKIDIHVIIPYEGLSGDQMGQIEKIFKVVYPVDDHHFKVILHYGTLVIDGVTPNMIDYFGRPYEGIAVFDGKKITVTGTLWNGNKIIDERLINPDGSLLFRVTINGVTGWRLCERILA
run.description: Substrate specificity and luminescence pattern of nanoKAZ secreted into culture medium
Format: biochemical
setup.conditions: culture medium with secreted nanoKAZ as enzyme, coelenterazine = 1.0
Consider the cut-off 9. If the recorded Relative maximum luminescence intensity (Imax) is strictly smaller, the label is YES; if not, the label is NO.

# count of solved cases: 2
{"molecule.smiles": "O=c1c(Cc2ccco2)nc2c(Cc3ccccc3)[nH]c(-c3ccccc3)cn1-2", "assigned.label": "YES"}
{"molecule.smiles": "O=c1c(Cc2ccc(C(F)(F)F)cc2)nc2c(Cc3ccccc3)[nH]c(-c3ccc(O)cc3)cn1-2", "assigned.label": "YES"}

API: query returns whether the molecule falls strictly under 9 in Relative maximum luminescence intensity (Imax). Query: O=c1c(Cc2cccc(O)c2)nc2c(Cc3ccccc3)[nH]c(-c3ccc(O)cc3)cn1-2 YES

API: query returns whether the molecule falls strictly under 9 in Relative maximum luminescence intensity (Imax). Query: Cc1ccc(Cc2nc3c(Cc4ccccc4)[nH]c(-c4ccc(O)cc4)cn-3c2=O)cc1 YES

API: query returns whether the molecule falls strictly under 9 in Relative maximum luminescence intensity (Imax). Query: Oc1ccc(-c2cn3c(O)c(Cc4ccccc4)nc3c(Cc3ccccc3)n2)cc1 NO

###

Maximum luminescence intensity (Imax) by entry:
tested.target: purified codon-optimized nanoKAZ domain protein (Oplophorus gracilirostris, UniProt Q9GV45, A31E/A60N/A81I/F95D/I117V/K70R/L54V/L99Q/M102K/N193R/P142E/Q151K/Q38R/Q45L/V71I/Y165I)
Construct: histidine tag (6 His) (N, cleaved yes); ZZ domain (N, cleaved yes); made in house; host or cells: Escherichia coli BL21
Sequence (Q9GV45 other isoform, or with tags, fused parts or gaps with the stated changes): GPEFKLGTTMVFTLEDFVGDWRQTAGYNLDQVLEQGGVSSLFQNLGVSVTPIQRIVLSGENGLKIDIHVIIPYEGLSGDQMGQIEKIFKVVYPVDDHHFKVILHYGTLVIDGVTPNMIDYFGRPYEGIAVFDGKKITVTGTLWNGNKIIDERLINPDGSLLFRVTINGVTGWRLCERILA
run.description: Substrate specificity of purified nanoKAZ
Format: biochemical
setup.conditions: purified nanoKAZ 0.03 μg, 1 μg substrate, coelenterazine = 1.0
No unit in the answer, please; the number alone is enough.

{"molecule.smiles": "Cc1cccc(Cc2nc3c(Cc4ccccc4)[nH]c(-c4ccc(O)cc4)cn-3c2=O)c1", "Maximum luminescence intensity (Imax)": 10.3}
{"molecule.smiles": "Oc1ccc(Cc2nc3c(Cc4ccccc4)nc(-c4ccc(O)cc4)cn3c2O)cc1", "Maximum luminescence intensity (Imax)": 1.0}

Which Maximum luminescence intensity (Imax) is listed for COc1cccc(Cc2nc3c(Cc4ccccc4)[nH]c(-c4ccc(O)cc4)cn-3c2=O)c1 ? 11.1

Which Maximum luminescence intensity (Imax) is listed for O=c1c(Cc2ccc(C(F)(F)F)cc2)nc2c(Cc3ccccc3)[nH]c(-c3ccc(O)cc3)cn1-2 ? 4.7

Which Maximum luminescence intensity (Imax) is listed for Cc1ccc(Cc2nc3c(Cc4ccccc4)[nH]c(-c4ccc(O)cc4)cn-3c2=O)cc1 ? 4.2

Which Maximum luminescence intensity (Imax) is listed for Oc1ccc(-c2cn3c(O)c(Cc4ccccc4)nc3c(Cc3ccccc3)n2)cc1 ? 19.7

Which Maximum luminescence intensity (Imax) is listed for O=c1c(Cc2ccco2)nc2c(Cc3ccccc3)[nH]c(-c3ccccc3)cn1-2 ? 6.8

Which Maximum luminescence intensity (Imax) is listed for COc1ccc(Cc2nc3c(Cc4ccccc4)[nH]c(-c4ccc(O)cc4)cn-3c2=O)cc1 ? 7.7

Which Maximum luminescence intensity (Imax) is listed for O=c1c(Cc2cccc(O)c2)nc2c(Cc3ccccc3)[nH]c(-c3ccc(O)cc3)cn1-2 ? 1.1

###

tested.target: codon-optimized nanoKAZ domain protein (Oplophorus gracilirostris, UniProt Q9GV45, A31E/A60N/A81I/F95D/I117V/K70R/L54V/L99Q/M102K/N193R/P142E/Q151K/Q38R/Q45L/V71I/Y165I)
Construct: expressed in transfected cells; host or cells: CHO-K1, HeLa or COS-1 cells transfected with pcDNA3-nanoKAZ or pcDNA3-GLsp-nanoKAZ
run.description: Substrate specificity and luminescence pattern of nanoKAZ secreted into culture medium
Type: biochemical
setup.conditions: culture medium with secreted nanoKAZ as enzyme, coelenterazine = 1.0
Relative maximum luminescence intensity (Imax) by entry:
No unit in the answer, please; the number alone is enough.

{"molecule.smiles": "COc1ccc(Cc2nc3c(Cc4ccccc4)[nH]c(-c4ccc(O)cc4)cn-3c2=O)cc1", "recorded.measurement": 8.9}

Which Relative maximum luminescence intensity (Imax) is listed for Oc1ccc(Cc2nc3c(Cc4ccccc4)nc(-c4ccc(O)cc4)cn3c2O)cc1 ? 1.0

Which Relative maximum luminescence intensity (Imax) is listed for COc1cccc(Cc2nc3c(Cc4ccccc4)[nH]c(-c4ccc(O)cc4)cn-3c2=O)c1 ? 11.6

Which Relative maximum luminescence intensity (Imax) is listed for Cc1cccc(Cc2nc3c(Cc4ccccc4)[nH]c(-c4ccc(O)cc4)cn-3c2=O)c1 ? 11.5
